For each record, write down the corresponding DC50.
target: HiBit-WIZ fusion protein (Homo sapiens, UniProt O95785+Q96SW2); assay: Quantification of WIZ protein levels in HiBit tag fusion protein assay (WIZ HiBit assay in 293T cells); format: cell-based; settings: WIZ HiBit assay in 293T cells; 10-point, 5-fold dose response, highest concentration 25 μM, about 18 hours; read-out: WIZ AC50
Sequence (O95785 whole entry, the tested form may be a part): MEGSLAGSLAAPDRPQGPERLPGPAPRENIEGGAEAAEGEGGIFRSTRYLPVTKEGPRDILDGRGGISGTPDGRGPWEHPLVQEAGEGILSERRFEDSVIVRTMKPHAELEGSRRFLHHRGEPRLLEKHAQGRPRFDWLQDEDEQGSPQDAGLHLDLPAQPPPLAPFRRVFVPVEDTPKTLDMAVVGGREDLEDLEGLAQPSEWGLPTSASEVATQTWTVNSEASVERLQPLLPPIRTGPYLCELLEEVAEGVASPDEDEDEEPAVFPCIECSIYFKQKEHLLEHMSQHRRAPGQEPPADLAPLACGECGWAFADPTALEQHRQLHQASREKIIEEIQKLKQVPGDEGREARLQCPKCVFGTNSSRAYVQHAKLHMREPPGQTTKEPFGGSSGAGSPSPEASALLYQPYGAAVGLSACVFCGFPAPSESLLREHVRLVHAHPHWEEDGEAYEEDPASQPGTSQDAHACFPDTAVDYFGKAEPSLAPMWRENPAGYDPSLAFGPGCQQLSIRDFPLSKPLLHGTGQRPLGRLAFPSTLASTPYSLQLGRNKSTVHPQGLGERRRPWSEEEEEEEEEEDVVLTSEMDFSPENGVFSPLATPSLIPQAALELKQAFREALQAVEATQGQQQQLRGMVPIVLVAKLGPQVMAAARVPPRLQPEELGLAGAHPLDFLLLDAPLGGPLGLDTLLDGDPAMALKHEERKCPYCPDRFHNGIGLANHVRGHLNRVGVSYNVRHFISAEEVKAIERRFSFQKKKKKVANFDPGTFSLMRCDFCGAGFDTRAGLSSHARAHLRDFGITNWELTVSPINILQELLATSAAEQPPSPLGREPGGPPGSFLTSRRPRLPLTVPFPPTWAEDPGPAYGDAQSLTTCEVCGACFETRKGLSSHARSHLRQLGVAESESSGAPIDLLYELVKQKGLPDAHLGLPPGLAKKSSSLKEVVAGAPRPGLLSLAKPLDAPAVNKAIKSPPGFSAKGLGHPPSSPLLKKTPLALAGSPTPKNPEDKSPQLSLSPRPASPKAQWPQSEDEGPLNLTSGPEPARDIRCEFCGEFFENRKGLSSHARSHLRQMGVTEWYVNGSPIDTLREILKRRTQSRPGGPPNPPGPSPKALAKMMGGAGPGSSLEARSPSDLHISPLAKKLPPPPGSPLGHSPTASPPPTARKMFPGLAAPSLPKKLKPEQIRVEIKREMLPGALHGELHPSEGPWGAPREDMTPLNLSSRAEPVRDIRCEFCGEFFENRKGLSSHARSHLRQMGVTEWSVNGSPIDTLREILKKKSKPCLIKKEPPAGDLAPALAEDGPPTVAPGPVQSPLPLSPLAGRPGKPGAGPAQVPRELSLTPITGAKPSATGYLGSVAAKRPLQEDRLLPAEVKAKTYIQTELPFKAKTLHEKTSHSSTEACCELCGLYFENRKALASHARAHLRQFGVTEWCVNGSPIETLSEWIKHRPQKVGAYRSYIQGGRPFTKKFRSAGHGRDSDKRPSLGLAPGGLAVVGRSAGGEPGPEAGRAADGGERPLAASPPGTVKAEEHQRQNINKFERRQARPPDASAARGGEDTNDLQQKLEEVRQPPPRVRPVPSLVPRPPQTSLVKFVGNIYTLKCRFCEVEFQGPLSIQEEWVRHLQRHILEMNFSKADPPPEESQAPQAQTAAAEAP
Sequence (Q96SW2 whole entry, the tested form may be a part): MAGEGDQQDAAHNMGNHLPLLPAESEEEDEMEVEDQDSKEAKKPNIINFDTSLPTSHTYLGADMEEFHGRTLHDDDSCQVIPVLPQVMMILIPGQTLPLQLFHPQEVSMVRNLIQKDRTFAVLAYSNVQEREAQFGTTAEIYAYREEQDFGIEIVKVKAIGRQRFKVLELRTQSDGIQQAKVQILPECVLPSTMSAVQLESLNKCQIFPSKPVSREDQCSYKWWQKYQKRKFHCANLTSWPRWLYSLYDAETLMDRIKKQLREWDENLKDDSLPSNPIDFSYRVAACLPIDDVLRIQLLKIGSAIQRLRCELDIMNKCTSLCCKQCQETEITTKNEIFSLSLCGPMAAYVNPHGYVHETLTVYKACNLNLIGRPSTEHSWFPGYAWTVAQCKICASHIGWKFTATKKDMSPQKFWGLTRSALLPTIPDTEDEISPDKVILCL
Sequence (Q16531 whole entry partner, the tested form may be a part): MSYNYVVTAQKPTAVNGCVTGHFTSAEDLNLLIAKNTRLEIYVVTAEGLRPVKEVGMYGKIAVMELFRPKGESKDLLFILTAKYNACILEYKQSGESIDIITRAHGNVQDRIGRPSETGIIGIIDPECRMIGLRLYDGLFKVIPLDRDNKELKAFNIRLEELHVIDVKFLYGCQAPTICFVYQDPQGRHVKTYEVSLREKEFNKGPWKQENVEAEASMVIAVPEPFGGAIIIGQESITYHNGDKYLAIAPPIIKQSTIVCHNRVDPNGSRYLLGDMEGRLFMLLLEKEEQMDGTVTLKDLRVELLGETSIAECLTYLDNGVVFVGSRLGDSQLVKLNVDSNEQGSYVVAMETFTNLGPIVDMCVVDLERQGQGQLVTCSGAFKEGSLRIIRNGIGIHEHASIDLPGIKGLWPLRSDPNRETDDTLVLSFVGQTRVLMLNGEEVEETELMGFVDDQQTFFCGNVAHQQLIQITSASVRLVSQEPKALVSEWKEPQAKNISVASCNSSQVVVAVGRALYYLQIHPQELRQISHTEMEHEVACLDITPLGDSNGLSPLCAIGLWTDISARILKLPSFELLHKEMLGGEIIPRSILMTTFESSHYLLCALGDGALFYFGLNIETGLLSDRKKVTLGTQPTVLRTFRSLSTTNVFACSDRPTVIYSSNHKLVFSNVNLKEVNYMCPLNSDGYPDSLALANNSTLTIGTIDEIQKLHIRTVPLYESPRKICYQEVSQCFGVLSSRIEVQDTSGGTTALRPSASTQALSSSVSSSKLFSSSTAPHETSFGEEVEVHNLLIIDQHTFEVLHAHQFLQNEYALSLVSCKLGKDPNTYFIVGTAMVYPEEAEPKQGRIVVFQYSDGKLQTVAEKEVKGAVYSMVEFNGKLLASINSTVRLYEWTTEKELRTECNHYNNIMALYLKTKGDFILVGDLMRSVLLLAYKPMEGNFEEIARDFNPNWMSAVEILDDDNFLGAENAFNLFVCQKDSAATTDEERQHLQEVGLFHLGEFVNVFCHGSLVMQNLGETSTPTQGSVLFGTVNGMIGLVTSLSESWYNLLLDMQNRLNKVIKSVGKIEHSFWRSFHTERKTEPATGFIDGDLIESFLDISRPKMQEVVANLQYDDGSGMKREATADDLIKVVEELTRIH

>>> valuemeasured("COc1cc(OC)nc(C(=O)N2CCCC[C@H]2COc2ccc3c(c2)CN(C2CCC(=O)NC2=O)C3=O)n1 (stereo partly shown) [Compound I-72is]")
"> 25 µM"
>>> valuemeasured("O=C1CCC(N2Cc3cc(OC[C@@H]4CCCCN4Cc4cc(-n5nnnc5C(F)(F)F)ccc4O)ccc3C2=O)C(=O)N1 (stereo partly shown) [Compound I-50x]")
"> 25 µM"
>>> valuemeasured("Cc1ccnc(-c2cc(C(=O)N3CCCC[C@H]3COc3ccc4c(c3)CN(C3CCC(=O)NC3=O)C4=O)ccn2)c1 (stereo partly shown) [Compound I-72fa]")
"> 25 µM"
>>> valuemeasured("Cc1nnc(-c2ccc(C(=O)N3CCCC[C@H]3COc3ccc4c(c3)CN(C3CCC(=O)NC3=O)C4=O)cc2)o1 (stereo partly shown) [Compound I-72gy]")
"> 25 µM"
>>> valuemeasured("CCc1cncc(C(=O)N2CCCC[C@H]2COc2ccc3c(c2)CN(C2CCC(=O)NC2=O)C3=O)c1 (stereo partly shown) [Compound I-72ay]")
"> 25 µM"

# return DC50 for each item in the list
1. COc1cc2[nH]nc(CN3CCCC[C@H]3COc3ccc4c(c3)CN(C3CCC(=O)NC3=O)C4=O)c2cc1OCc1ccccc1 (stereo partly shown) [Compound I-50ae]
2. COc1ccc(C(=O)N2CCCC[C@H]2COc2ccc3c(c2)CN(C2CCC(=O)NC2=O)C3=O)nn1 (stereo partly shown) [Compound I-72gm]
3. COc1ccc(C(C)(C)C(=O)N2CCCC[C@H]2COc2ccc3c(c2)CN(C2CCC(=O)NC2=O)C3=O)cc1 (stereo partly shown) [Compound I-72fz]
4. O=C1CCC(N2Cc3cc(OC[C@@H]4CCCCN4Cc4ccccc4Cn4cncn4)ccc3C2=O)C(=O)N1 (stereo partly shown) [Compound I-50q]
5. CN1CCCC1C(=O)N1CCCC[C@@H]1COc1ccc2c(c1)CN(C1CCC(=O)NC1=O)C2=O (stereo partly shown) [Compound I-72dd]

OUTPUT:
1: > 25 µM; 2: > 25 µM; 3: > 25 µM; 4: > 25 µM; 5: > 25 µM
